protocol: Plasma level of corilagin, LC/MS analysis
Format: in vivo, mice
measurement_conditions: C57BL/6, mouse, 2 hrs after the last oral dose of 100 mg/kg, day 21, read-out: average circulating level
endpoint: concentration at 2 h (nM)
Reply with just the number (in nM).

Which value of concentration at 2 h has been reported for O=C(O[C@@H]1O[C@@H]2COC(=O)c3cc(O)c(O)c(O)c3-c3c(cc(O)c(O)c3O)C(=O)O[C@H]([C@H]1O)[C@@H]2O)c1cc(O)c(O)c(O)c1 in the records?
80

###

tested_target: human LOXL2 (Homo sapiens, UniProt Q9Y4K0)
protocol: LOX activity assay (H2O2 release, fluorimetric)
Type: biochemical
measurement_conditions: 1 h incubation, read-out: IC50 of LOXL2 enzymatic activity toward a model substrate
endpoint: IC50 (nM)
Give the value, in units of nM, as a plain number.

Form entry - test system: human LOXL2 (Homo sapiens, UniProt Q9Y4K0); read-out: IC50; compound: O=C(O[C@@H]1O[C@@H]2COC(=O)c3cc(O)c(O)c(O)c3-c3c(cc(O)c(O)c3O)C(=O)O[C@H]([C@H]1O)[C@@H]2O)c1cc(O)c(O)c(O)c1 [corilagin, Corilagin]
50

###

tested_target: human LOXL2 (Homo sapiens)
Sequence (Q9Y4K0 26-774): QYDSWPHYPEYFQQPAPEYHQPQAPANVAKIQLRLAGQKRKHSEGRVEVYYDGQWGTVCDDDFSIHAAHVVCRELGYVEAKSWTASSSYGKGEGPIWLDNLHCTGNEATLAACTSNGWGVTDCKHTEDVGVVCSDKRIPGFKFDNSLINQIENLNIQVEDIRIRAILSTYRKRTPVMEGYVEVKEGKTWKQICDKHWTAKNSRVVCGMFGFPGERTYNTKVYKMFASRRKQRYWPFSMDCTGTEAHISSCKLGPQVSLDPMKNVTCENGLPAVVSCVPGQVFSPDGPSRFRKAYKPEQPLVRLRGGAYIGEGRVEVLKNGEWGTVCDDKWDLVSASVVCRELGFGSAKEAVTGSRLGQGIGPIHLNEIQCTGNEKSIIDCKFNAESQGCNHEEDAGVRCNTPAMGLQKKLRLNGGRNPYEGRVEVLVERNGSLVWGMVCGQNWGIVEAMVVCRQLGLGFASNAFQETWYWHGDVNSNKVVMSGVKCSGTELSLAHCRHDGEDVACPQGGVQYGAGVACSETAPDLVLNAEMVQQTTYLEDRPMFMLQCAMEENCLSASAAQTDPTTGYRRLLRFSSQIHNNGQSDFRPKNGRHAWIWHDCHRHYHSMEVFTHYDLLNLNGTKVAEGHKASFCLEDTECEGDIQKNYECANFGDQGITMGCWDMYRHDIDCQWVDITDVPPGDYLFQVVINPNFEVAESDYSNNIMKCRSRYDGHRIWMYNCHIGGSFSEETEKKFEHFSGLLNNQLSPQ
protocol: Collagen crosslinking induced by recombinant LOXL2 in lung fibroblasts (Sircol assay)
Assay type: cell-based
measurement_conditions: primary human lung fibroblasts, 7 days
endpoint: pIC50
// returns pIC50 (minus log10 of molar concentration), number only

Reported pIC50, molecule O=C(O[C@@H]1O[C@@H]2COC(=O)c3cc(O)c(O)c(O)c3-c3c(cc(O)c(O)c3O)C(=O)O[C@H]([C@H]1O)[C@@H]2O)c1cc(O)c(O)c(O)c1 [corilagin, Corilagin] : ____
8.00
